- experiment: Toxicity in CD1 mouse model of formalin-induced nociception assessed as prostration or sedation at 30 mg/kg, po
- Type: organism-based
- condition-summary: in vivo
measurement-kind: Activity

{"smiles-entry": "CC(C)COc1ncc(-c2cn(C)c3cc(C(=O)NS(=O)(=O)C4CC4)c(F)cc23)cc1Cl", "result": "Non-Toxic"}
{"smiles-entry": "Cn1cc(-c2ccc(C(F)F)cc2)c2cc(F)c(C(=O)NS(=O)(=O)C3CC3)cc21", "result": "Non-Toxic"}
{"smiles-entry": "CC(C)COc1ccc(-c2cn(C)c3cc(C(=O)NS(C)(=O)=O)c(F)cc23)cn1", "result": "Non-Toxic"}
{"smiles-entry": "CC(C)COc1ncc(-c2nn(C)c3cc(C(=O)NS(C)(=O)=O)ccc23)cc1Cl", "result": "Toxic"}
{"smiles-entry": "Cn1cc(-c2ccc(C(F)(F)F)cc2)c2cc(F)c(C(=O)NS(=O)(=O)C3CC3)cc21", "result": "Non-Toxic"}
{"smiles-entry": "CC(C)COc1ccc(-c2cn(C)c3cc(C(=O)NS(=O)(=O)C4CC4)c(F)cc23)cn1", "result": "Non-Toxic"}
